Sourced from ChEMBL document CHEMBL4513216

INHIBITION for assorted compounds
# Test system: Plasmodium falciparum
# experimentDescription: Screen against P. falciparum Asexual Blood Stage (ABS), at 5uM
# Type: functional, Dd2
# conditions: tested at 5 uM
Hit rate of the full screen: of about 65,000 compounds, about 2,100 (3.2%) showed an effect of 50% or more. The median lay at about -52%. The sample as a whole holds a higher share of strong results than the screen did.
// return numeric value only (unit: %, not printed)

The examples below pair each entry with its known result.
Specify measured INHIBITION for N#CC1(c2ccccc2)CCN(C(=O)CN2C(=O)CCNC2=O)CC1 .
-90.6

Give the value of INHIBITION reported for the following: Cc1nc(-c2cc(Cl)cc3c2OC(CN)C3)c[nH]1 (centres undefined)
94.4

Query INHIBITION for O=C1CSC(c2ccsc2)c2sccc2N1 (centres undefined)
-15.7

Retrieve INHIBITION measured for CCCN1CCC[C@]2(CCC(=O)N2Cc2ccncc2)[C@H]1CC and print it.
-97.5

Return INHIBITION (reported value) for this compound: O=C(c1c[nH]c(=O)c(Cl)c1)N1C[C@H]2CC[C@@H](C1)N(CC1CCC1)C2
-110

Others:
Tell me INHIBITION reported for NCC1Cc2cc(Cl)cc(-c3cncc(C(=O)N4CCCCC4)n3)c2O1 (centres undefined)
76

Quote INHIBITION reported for Cc1n[nH]cc1CNC1(c2ccc(F)cc2)CCCC1 please.
83.4
